Tested on: TK-10
MEASUREMENT_NOTES: NCI tumour cell line growth inhibition, 48 h
The source made the active and inactive calls. No stated cut-off is given here; in the data, active = GI50 up to about 1.1 µM and inactive = higher.
A collection of compounds and their measured GI50

{"columns": ["COMPOUND", "SYSTEM", "GI50"],
 "data": [
  ["COc1cc2cc[n+]3c(C)c4cc(OC)c(OC)cc4c([O-])c3c2cc1OC", "TK-10", "> 100 µM (inactive)"],
  ["O=[N+]([O-])c1ccc(N2N=C(c3ccc4ccccc4c3O)CC2c2ccc(Cl)cc2Cl)c([N+](=O)[O-])c1 (centres undefined)", "TK-10", "63 µM (inactive)"],
  ["CCOC(=O)N1N(c2ccccc2)C(=O)C1(c1ccccc1)c1ccccc1", "TK-10", "> 100 µM (inactive)"]
]}

In the following, a different compound is considered.
CC(C)C1/C(=N/O)CC(c2ccccc2)N(N=O)C1c1ccccc1 (centres undefined) yielded GI50 of 62.2 µM (inactive)
